Assay: Antagonist activity at PKA in human CD3-positive T cells assessed as inhibition of cell proliferation after 72 hrs by [H]thymidine incorporation assay relative to (RP)-8-Br-cAMPS
Assay type: functional
Each entry below carries its reported Ratio.
Just the number, please, no unit attached.

CNc1ncnc2c1nc(-c1ccco1)n2[C@@H]1O[C@@H]2COP(=O)([S-])O[C@H]2[C@H]1O.[Na+] (some centres undefined) : 0.2
CN(C)c1ncnc2c1nc(-c1ccco1)n2[C@@H]1O[C@@H]2COP(=O)([S-])O[C@H]2[C@H]1O.[Na+] (some centres undefined) : 0.1
CCCCNc1ncnc2c1nc(-c1ccco1)n2[C@@H]1O[C@@H]2COP(=O)(S)O[C@H]2[C@H]1O (some centres undefined) : 0.53

Could you now consider this next molecule?
Recorded Ratio (molecule CCCNc1ncnc2c1nc(-c1ccco1)n2[C@@H]1O[C@@H]2COP(=O)(S)O[C@H]2[C@H]1O (some centres undefined) ): 0.24
